- Protocol description: Specific activity of purified CHI, absorbance decrease at 384 nm, eriodictyol chalcone; note: unit not given here
- Assay type: biochemical
- Particulars: purified CHI in 50 mM PBS, 100 μM substrate, 25° C.
Property label: Specific activity, Eriodictyol chalcone
# answer = number (no unit)

Quick one: Specific activity, Eriodictyol chalcone for CHIera Mut11: Chalcone isomerase variant 11 from Eubacterium ramulus, genetically engineered (protein, listed as Eubacterium ramulus) MADFKFEPMRSLIYVDCVSEDYRPKLQRWIYKVHIPDSISQFEPYVTKYAFYPSFPIPPQGDRFGYARMQLTEHHWLVSPLDPRLEIKAIAETFPMDVLVWQGQIPAAAHTDAQIDSDGDAGDAARKSNNAEGNPFIFAFLPMWWEKDLKGKGRTIEDGANYRFNMTIGFPEGVDKAEGEKWLFEKVVPILQAAPECTRVLASAVKKDINGCVMDWVLEIWFENQSGWYKVMVDDMKALEKPSWAQQDAFPFLKPYHNVCSAAVADYTPSNNLANYRGYITMR ?
91.1
